Measured Relative cAMP EC50 by item
Biological target: human glucagon receptor (human) (UniProt P47871)
Sequence (P47871 26-477): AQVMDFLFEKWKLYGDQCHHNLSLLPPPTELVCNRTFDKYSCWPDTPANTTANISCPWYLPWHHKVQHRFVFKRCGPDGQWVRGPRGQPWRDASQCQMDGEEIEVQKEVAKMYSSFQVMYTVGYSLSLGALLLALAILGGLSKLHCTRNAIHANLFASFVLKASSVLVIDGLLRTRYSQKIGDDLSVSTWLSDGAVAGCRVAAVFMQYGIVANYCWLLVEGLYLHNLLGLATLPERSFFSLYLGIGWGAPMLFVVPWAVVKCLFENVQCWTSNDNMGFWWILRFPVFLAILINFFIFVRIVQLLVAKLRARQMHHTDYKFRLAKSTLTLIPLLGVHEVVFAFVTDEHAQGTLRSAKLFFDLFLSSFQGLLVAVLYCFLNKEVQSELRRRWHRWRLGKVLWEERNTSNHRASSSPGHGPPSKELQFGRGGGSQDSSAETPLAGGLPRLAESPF
Test: cell-based or functional assay
Starred links: 1 amine or outer side, 2 acyl side, 3 side chain; linkers in the order of their positions; H or OH if unused. Non-standard residues stand in square brackets, D forms with d. Groups on a side chain read outwards from the residue. No end group written: not given here. *: point of attachment. C20 diacid = O=C(O)CCCCCCCCCCCCCCCCCCC(=O)*; γGlu = O=C(O)[C@H](CCC(=O)[*:2])N[*:1]; αMeL = CC(C)C[C@](C)(N)C(=O)O; AEEA = NCCOCCOCC(=O)O; Aib = CC(C)(N)C(=O)O
Write the answer as a number in nM, unit excluded.

Task item: Endpoint output: Relative cAMP EC50 of YXQGTFTSDXSQXLDXKAQXAFIQXLLEGGPSSGAPPPSGSEEE (Aib, 4Pal, Orn, Me4Pal, αMeY; acylated lysine; amide; synthetic construct; SITE 2: note = 2-Aminoisobutyric Acid; SITE 10: note = 3-(4-Pyridyl)-L-alanine; SITE 13: note = alpha-methyl-leucine; SITE 16: note = L-ornithine; SITE 17: note = Lysine is chemically modified through conjugation of the epsilon-amino group of the Lysine side chain with D-Glutami) [Example 1083] . Value?
Reply: 15

Task item: Endpoint output: Relative cAMP EC50 of Y[Aib]QGTFTSDYSI[αMeL]LDKIAAK([AEEA-AEEA-γGlu-C20 diacid])QFVQWLIE[Aib]GPSSGEPPPSEG-NH2 (ends and bridges not checked) [Example 323] . Value?
Reply: 6.04

Task item: Endpoint output: Relative cAMP EC50 of YXQGTXTSDXXIXLDXKAQXEFIEXLVEGGPSSGAPPPSGE (C-terminal amide; lysine acylated with (γ-Glu)2-C18 diacid; synthetic construct; SITE 2: note = 2-Aminoisobutyric Acid; SITE 6: note = alpha-methyl-2-fluoro-L-phenylalanine; SITE 10: note = 3-(4-Pyridyl)-L-alanine; SITE 11: note = alpha-methyl-L-serine; SITE 13: note = alpha-methyl-leucine; SITE 16: note = L-ornithine; SITE 17: note = Lysine is chemically mo) [Example 1160] . Value?
Reply: 2.41

Task item: Endpoint output: Relative cAMP EC50 of YXQGTFTSDXSQXLDKKAQXAFIEYLIAGGPSSGAPPPSGEEE (non-natural residues; acylated Lys; C-terminal amide; synthetic construct; SITE 2: note = 2-Aminoisobutyric Acid; SITE 10: note = 3-(4-Pyridyl)-L-alanine; SITE 13: note = alpha-methyl-leucine; SITE 17: note = Lysine is chemically modified through conjugation of the epsilon-amino group of the Lysine side chain with (Glu)-(gamma-Glu)-CO-(CH2)16-CO2H; SIT) [Example 1089] . Value?
Reply: 14

Task item: Endpoint output: Relative cAMP EC50 of Y[Aib]QGTFTSDYSI[αMeL]LDKQAAK([AEEA-AEEA-γGlu-C20 diacid])QFVEWLIA[Aib]GPSSGEPPPAEG-NH2 [Example 334] . Value?
Reply: 6.77
